Test system: ASPS-1 complex tumor spheroids, viability
Assay: Anticancer human tumor ASPS-1 cell line growth inhibition
Details: second compound 1 µM; first compound 0.1 µM; hits give low values
OUTCOME_MEASURE: viability, T/C (%)

1. CC(C)n1c(=O)n(C)c2cnc3cc(F)c(-c4ccc(OCCCN5CCCCC5)nc4)cc3c21 + Cn1nnc2c(C(N)=O)ncn2c1=O | 104
2. CC1COCCN1c1cc(-c2ccnn2C)c2ccnc(-c3ccn[nH]3)c2n1 (stereo unspecified) + Cn1nnc2c(C(N)=O)ncn2c1=O | 59.2
3. COc1cc(C)[nH]c(=O)c1CN1CCc2c(Cl)cc(C(OC)C3COC3)c(Cl)c2C1=O (stereo unspecified) + Cn1nnc2c(C(N)=O)ncn2c1=O | 104
4. [2H]c1nc(C)nc([2H])c1-c1cc(NC[C@@H](C)c2cccc3c(C(=O)NC)ccnc23)ncn1 + Cn1nnc2c(C(N)=O)ncn2c1=O | 100
5. COc1ccc([C@@H](O)c2cc(-c3ncnc4cc(N5CCOCC5)ccc34)c(F)cc2Cl)nn1 + Cn1nnc2c(C(N)=O)ncn2c1=O | 103
6. Cc1cc(C)c(CNC(=O)c2cc(-c3ccc(CN4CCOCC4)cc3)cc3c2cnn3C2CCCC2)c(=O)[nH]1 + Cn1nnc2c(C(N)=O)ncn2c1=O | 95.4

====

Test system: ASPS-1 complex tumor spheroids, viability
Test: Anticancer human tumor ASPS-1 cell line growth inhibition
Conditions: second compound 1 µM; first compound 0.3 µM; hits give low values
Listing of recorded viability, T/C by entry.
OUTCOME_MEASURE: viability, T/C (%)

1) Cn1ncnc1[C@H]1c2n[nH]c(=O)c3cc(F)cc(c23)N[C@@H]1c1ccc(F)cc1 + Cn1nnc2c(C(N)=O)ncn2c1=O | 103
2) O=C(c1cc(Cc2n[nH]c(=O)c3ccccc23)ccc1F)N1CCN(C(=O)C2CC2)CC1 + Cn1nnc2c(C(N)=O)ncn2c1=O | 83.3
3) CNCc1ccc(-c2cc(-c3nc(-c4ccc(S(=O)(=O)C(C)C)cc4)cnc3N)on2)cc1 + Cn1nnc2c(C(N)=O)ncn2c1=O | 72.5
4) Cc1sc2c(c1C)C(c1ccc(Cl)cc1)=NC(CC(=O)Nc1ccc(O)cc1)c1nnc(C)n1-2 (centres undefined) + Cn1nnc2c(C(N)=O)ncn2c1=O | 99.4

====

System: ASPS-1 complex tumor spheroids, viability
Test: Anticancer human tumor ASPS-1 cell line growth inhibition;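 further: spheroids exposed to agents for 7 days after 3 days of growth; 100% = DMSO vehicle treated spheroids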
Conditions: second compound 0.00949 µM; first compound 10 µM; hits give low values
Please use met for viability, T/C under 40% and not met for everything else, ties included.

1) Cc1cc(C)c(CNC(=O)c2cc(-c3ccc(CN4CCOCC4)cc3)cc3c2cnn3C2CCCC2)c(=O)[nH]1 + CC[C@@]1(O)C(=O)OCc2c1cc1n(c2=O)Cc2cc3c(CN(C)C)c(O)ccc3nc2-1 | not met
2) [2H]c1nc(C)nc([2H])c1-c1cc(NC[C@@H](C)c2cccc3c(C(=O)NC)ccnc23)ncn1 + CC[C@@]1(O)C(=O)OCc2c1cc1n(c2=O)Cc2cc3c(CN(C)C)c(O)ccc3nc2-1 | not met
3) CC1COCCN1c1cc(-c2ccnn2C)c2ccnc(-c3ccn[nH]3)c2n1 (stereo unspecified) + CC[C@@]1(O)C(=O)OCc2c1cc1n(c2=O)Cc2cc3c(CN(C)C)c(O)ccc3nc2-1 | not met
4) CC(C)n1c(=O)n(C)c2cnc3cc(F)c(-c4ccc(OCCCN5CCCCC5)nc4)cc3c21 + CC[C@@]1(O)C(=O)OCc2c1cc1n(c2=O)Cc2cc3c(CN(C)C)c(O)ccc3nc2-1 | met
5) COc1cc(C)[nH]c(=O)c1CN1CCc2c(Cl)cc(C(OC)C3COC3)c(Cl)c2C1=O (stereo unspecified) + CC[C@@]1(O)C(=O)OCc2c1cc1n(c2=O)Cc2cc3c(CN(C)C)c(O)ccc3nc2-1 | not met

====

Tested on: ASPS-1 complex tumor spheroids, viability
Assay: Anticancer human tumor ASPS-1 cell line growth inhibition;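 further: spheroids exposed to agents for 7 days after 3 days of growth; 100% = DMSO vehicle treated spheroids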
Conditions: second compound 30 pM; first compound 0.0949 µM; hits give low values
Procedure: Multicellular complex tumor spheroid response to DNA repair inhibitors in combination with DNA-damaging drugs This study explores the anticancer activities of DNA-damaging drugs and inhibitors of DNA damage repair, both as single agents and in combinations. […] Twenty-six patient-derived or established malignant cell lines were evaluated representing sarcoma, melanoma, small cell lung cancer (SCLC), non-small cell lung cancer (NSCLC), as well as bladder, ovarian and pancreatic cancers. […]
Listing of recorded viability, T/C by entry.
OUTCOME_MEASURE: viability, T/C

1. CNCc1ccc(-c2cc(-c3nc(-c4ccc(S(=O)(=O)C(C)C)cc4)cnc3N)on2)cc1 + COc1cc2c(cc1O)CCNC21CSC2c3c(OC(C)=O)c(C)c4c(c3C(COC1=O)N1C(O)C3Cc5cc(C)c(OC)c(O)c5C(C21)N3C)OCO4 | 105%
2. Cn1ncnc1[C@H]1c2n[nH]c(=O)c3cc(F)cc(c23)N[C@@H]1c1ccc(F)cc1 + COc1cc2c(cc1O)CCNC21CSC2c3c(OC(C)=O)c(C)c4c(c3C(COC1=O)N1C(O)C3Cc5cc(C)c(OC)c(O)c5C(C21)N3C)OCO4 | 101%
3. Cc1sc2c(c1C)C(c1ccc(Cl)cc1)=NC(CC(=O)Nc1ccc(O)cc1)c1nnc(C)n1-2 (centres undefined) + COc1cc2c(cc1O)CCNC21CSC2c3c(OC(C)=O)c(C)c4c(c3C(COC1=O)N1C(O)C3Cc5cc(C)c(OC)c(O)c5C(C21)N3C)OCO4 | 113%
4. O=C(c1cc(Cc2n[nH]c(=O)c3ccccc23)ccc1F)N1CCN(C(=O)C2CC2)CC1 + COc1cc2c(cc1O)CCNC21CSC2c3c(OC(C)=O)c(C)c4c(c3C(COC1=O)N1C(O)C3Cc5cc(C)c(OC)c(O)c5C(C21)N3C)OCO4 | 114%

====

System: ASPS-1 complex tumor spheroids, viability
Experiment: Anticancer human tumor ASPS-1 cell line growth inhibition; active = viability on the fitted dose curve at most 10% of control; inactive = the rest;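 further: spheroids exposed to agents for 7 days after 3 days of growth; 100% = DMSO vehicle treated spheroids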
Details: second compound 0.003 µM; first compound 0.949 µM
Outcome codes: active, inactive

1. CNCc1ccc(-c2cc(-c3nc(-c4ccc(S(=O)(=O)C(C)C)cc4)cnc3N)on2)cc1 + COc1cc2c(cc1O)CCNC21CSC2c3c(OC(C)=O)c(C)c4c(c3C(COC1=O)N1C(O)C3Cc5cc(C)c(OC)c(O)c5C(C21)N3C)OCO4 | active
2. Cn1ncnc1[C@H]1c2n[nH]c(=O)c3cc(F)cc(c23)N[C@@H]1c1ccc(F)cc1 + CC[C@@]1(O)C(=O)OCc2c1cc1n(c2=O)Cc2cc3c(CN(C)C)c(O)ccc3nc2-1 | inactive
3. Cc1sc2c(c1C)C(c1ccc(Cl)cc1)=NC(CC(=O)Nc1ccc(O)cc1)c1nnc(C)n1-2 (stereo not drawn) + COc1cc2c(cc1O)CCNC21CSC2c3c(OC(C)=O)c(C)c4c(c3C(COC1=O)N1C(O)C3Cc5cc(C)c(OC)c(O)c5C(C21)N3C)OCO4 | inactive
4. O=C(c1cc(Cc2n[nH]c(=O)c3ccccc23)ccc1F)N1CCN(C(=O)C2CC2)CC1 + CC[C@@]1(O)C(=O)OCc2c1cc1n(c2=O)Cc2cc3c(CN(C)C)c(O)ccc3nc2-1 | inactive
5. CNCc1ccc(-c2cc(-c3nc(-c4ccc(S(=O)(=O)C(C)C)cc4)cnc3N)on2)cc1 + CC[C@@]1(O)C(=O)OCc2c1cc1n(c2=O)Cc2cc3c(CN(C)C)c(O)ccc3nc2-1 | inactive
6. O=C(c1cc(Cc2n[nH]c(=O)c3ccccc23)ccc1F)N1CCN(C(=O)C2CC2)CC1 + COc1cc2c(cc1O)CCNC21CSC2c3c(OC(C)=O)c(C)c4c(c3C(COC1=O)N1C(O)C3Cc5cc(C)c(OC)c(O)c5C(C21)N3C)OCO4 | inactive
7. Cn1ncnc1[C@H]1c2n[nH]c(=O)c3cc(F)cc(c23)N[C@@H]1c1ccc(F)cc1 + COc1cc2c(cc1O)CCNC21CSC2c3c(OC(C)=O)c(C)c4c(c3C(COC1=O)N1C(O)C3Cc5cc(C)c(OC)c(O)c5C(C21)N3C)OCO4 | inactive
8. Cc1sc2c(c1C)C(c1ccc(Cl)cc1)=NC(CC(=O)Nc1ccc(O)cc1)c1nnc(C)n1-2 (stereo not drawn) + CC[C@@]1(O)C(=O)OCc2c1cc1n(c2=O)Cc2cc3c(CN(C)C)c(O)ccc3nc2-1 | inactive

====

System: ASPS-1 complex tumor spheroids, viability
Test: Anticancer human tumor ASPS-1 cell line growth inhibition;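 further: spheroids exposed to agents for 7 days after 3 days of growth; 100% = DMSO vehicle treated spheroids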
Conditions: second compound 1 µM; first compound 10 µM; hits give low values
OUTCOME_MEASURE: viability, T/C

1) CC(C)n1c(=O)n(C)c2cnc3cc(F)c(-c4ccc(OCCCN5CCCCC5)nc4)cc3c21 + Cn1nnc2c(C(N)=O)ncn2c1=O | 42.1%
2) CC1COCCN1c1cc(-c2ccnn2C)c2ccnc(-c3ccn[nH]3)c2n1 (stereo unspecified) + Cn1nnc2c(C(N)=O)ncn2c1=O | 43.9%
3) Cc1cc(C)c(CNC(=O)c2cc(-c3ccc(CN4CCOCC4)cc3)cc3c2cnn3C2CCCC2)c(=O)[nH]1 + Cn1nnc2c(C(N)=O)ncn2c1=O | 86.7%
4) COc1cc(C)[nH]c(=O)c1CN1CCc2c(Cl)cc(C(OC)C3COC3)c(Cl)c2C1=O (stereo unspecified) + Cn1nnc2c(C(N)=O)ncn2c1=O | 96.7%
5) [2H]c1nc(C)nc([2H])c1-c1cc(NC[C@@H](C)c2cccc3c(C(=O)NC)ccnc23)ncn1 + Cn1nnc2c(C(N)=O)ncn2c1=O | 99.2%
6) COc1ccc([C@@H](O)c2cc(-c3ncnc4cc(N5CCOCC5)ccc34)c(F)cc2Cl)nn1 + Cn1nnc2c(C(N)=O)ncn2c1=O | 48.4%

Source: PubChem BioAssay AID1845200
